Data origin: patent US20090202661A1

Quick reference for ng found among some compounds
Assay: Residue neutralization: recovery and breakdown of pesticide and fungicide active ingredients after exposure to anolyte dilutions
Assay type: physicochemical
Details: 10% anolyte solution, 5 minutes, ambient temperature
Metric name: ng found (ng)

* CCCCNC(=O)n1c(NC(=O)OC)nc2ccccc21 | 0.520
* CCOP(=S)(OCC)Oc1nc(Cl)c(Cl)cc1Cl | 0.05
* Cc1cc(C2CC2)nc(Nc2ccccc2)n1 | 0.068
* CO/N=C(/C(=O)OC)c1ccccc1COc1ccccc1C | 1.344
* CCCCc1c(C)nc(NCC)nc1OS(=O)(=O)N(C)C [Bupirimate] | 0.730
* CCOC(=O)CC(SP(=S)(OC)OC)C(=O)OCC (stereo not shown) | 0.066
* CNC(=O)O/N=C/C(C)(C)SC | 0.000
* CNC(=O)O/N=C/C(C)(C)[S+](C)[O-] (stereo not shown) [Aldicarb sulfoxide] | 0.000
* COP(=S)(OC)SCn1nnc2ccccc2c1=O | 0.000
* CNC(=O)ON=C(C)SC | 0.000
